System: H727
Test: CellTiter-Glo proliferation/survival assay, H727
Format: cell-based
Settings: Homo sapiens, NCI-H727, 120 h, 5 days, 0.005-100 nM
Quantity measured: IC50

Q. Tell me the measured IC50 of C=CC(=O)N1CCN(c2nc(=O)n(-c3c(C)ccnc3C(C)C)c3nc(-c4c(O)cccc4F)c(F)cc23)[C@@H](C)C1 [Sotorasib] , please.
A. > 100 nM
